# Test system: G190A HIV-1 RT RNase H activity
# assay-summary: FRET-based RT RNase H cleavage assay, G190A RT
# Format: biochemical
# experimental-context: G190A RT; fold resistance IC50 mutant/IC50 WT
value-kind: Inhibition of RT RNase H Activity Fold-R
Write no unit; give the number alone.

Cc1ccc(-n2sc3ccccc3c2=O)cc1S(=O)(=O)N1CCCCC1 :: 1.3
CCOC(=O)Cc1csc(-n2sc3ccccc3c2=O)n1 :: 1.8
CCN(CC)S(=O)(=O)c1cccc(-n2sc3ccccc3c2=O)c1 :: 1.2
Cn1sc2ccccc2c1=O [Compound 3, 2-methylbenzo[d]isothiazol-3(2H)-one] :: 1.0

Proceeding to the next compound to report its Inhibition of RT RNase H Activity Fold-R.
Q: Using the record for O=c1c(O)ccccc1O [Compound 19619, reference compound] , report its Inhibition of RT RNase H Activity Fold-R.
Result: 0.8
